Entry source: ChEMBL document CHEMBL1955849

Test: Solubility of the compound in water
Assay type: physicochemical
METRIC_NAME: solubility

                               entry_smiles  metric_name    observed
0  NS(=O)(=O)c1ccc(CNC(=S)N[C@@H]2O[C@H](CO)[C@@H](O[C@H]3O[C@H](CO)[C@@H](O)[C@H](O)[C@H]3O)[C@H](O)[C@H]2O)cc1   solubility  > 20 mg/mL
1  NS(=O)(=O)c1ccc(C(=O)NNC(=S)N[C@@H]2O[C@H](CO)[C@@H](O)[C@H](O)[C@H]2O)cc1   solubility  > 20 mg/mL

Consider now this further compound.
Exercise: State the recorded solubility for this entry: NS(=O)(=O)c1ccc(NC(=S)N[C@@H]2O[C@H](CO)[C@@H](O[C@H]3O[C@H](CO)[C@@H](O)[C@H](O)[C@H]3O)[C@H](O)[C@H]2O)cc1
Solution: > 20 mg/mL

----------
// Ki collected for Carbonic anhydrase 12 (Homo sapiens, UniProt O43570)
One number for each entry, in nM.

A selection of reference data follows.
ENTRY_SMILES	ASSAYED_TARGET	ENDPOINT_UNIT	Ki
NS(=O)(=O)c1ccc(C(=O)NNC(=S)N[C@@H]2O[C@H](CO)[C@H](O)[C@H](O)[C@H]2O)cc1	Carbonic anhydrase 12 (Homo sapiens, UniProt O43570)	nM	8.5
CC(=O)OC[C@H]1O[C@@H](NC(=S)NNC(=O)c2ccc(S(N)(=O)=O)cc2)[C@H](OC(C)=O)[C@@H](OC(C)=O)[C@@H]1O[C@H]1O[C@H](COC(C)=O)[C@@H](OC(C)=O)[C@H](OC(C)=O)[C@H]1OC(C)=O	Carbonic anhydrase 12 (Homo sapiens, UniProt O43570)	nM	7.6
NS(=O)(=O)c1ccc(NC(=S)N[C@@H]2O[C@H](CO)[C@H](O)[C@H](O)[C@H]2O)cc1	Carbonic anhydrase 12 (Homo sapiens, UniProt O43570)	nM	20.1
NS(=O)(=O)c1ccc(CCNC(=S)N[C@@H]2O[C@H](CO)[C@@H](O[C@@H]3O[C@H](CO)[C@H](O)[C@H](O)[C@H]3O)[C@H](O)[C@H]2O)cc1	Carbonic anhydrase 12 (Homo sapiens, UniProt O43570)	nM	13.5
NS(=O)(=O)c1ccc(CCNC(=S)N[C@@H]2O[C@H](CO)[C@@H](O[C@H]3O[C@H](CO)[C@@H](O)[C@H](O)[C@H]3O)[C@H](O)[C@H]2O)cc1	Carbonic anhydrase 12 (Homo sapiens, UniProt O43570)	nM	9.8

Now let's try a different one.
Exercise: Recorded Ki for CC(=O)OC[C@H]1O[C@@H](NC(=S)NCCc2ccc(S(N)(=O)=O)cc2)[C@H](OC(C)=O)[C@@H](OC(C)=O)[C@@H]1OC(C)=O with Carbonic anhydrase 12 (Homo sapiens, UniProt O43570), please?
Solution: 8.9

----------
// endpoint Ki / system Carbonic anhydrase 2 (Homo sapiens)
Numbers only, in nM.

ENTRY_SMILES	OBSERVED
CC(=O)OC[C@H]1O[C@@H](NC(=S)NCCc2ccc(S(N)(=O)=O)cc2)[C@H](OC(C)=O)[C@@H](OC(C)=O)[C@@H]1OC(C)=O	7.3
NS(=O)(=O)c1ccc(C(=O)NNC(=S)N[C@@H]2O[C@H](CO)[C@@H](O)[C@H](O)[C@H]2O)cc1	525
CC(=O)OC[C@H]1O[C@@H](NC(=S)NCCc2ccc(S(N)(=O)=O)cc2)[C@H](OC(C)=O)[C@@H](OC(C)=O)[C@@H]1O[C@H]1O[C@H](COC(C)=O)[C@@H](OC(C)=O)[C@H](OC(C)=O)[C@H]1OC(C)=O	9.8
CC(=O)OC[C@H]1O[C@@H](O[C@H]2[C@H](OC(C)=O)[C@@H](OC(C)=O)[C@H](NC(=S)NCCc3ccc(S(N)(=O)=O)cc3)O[C@@H]2COC(C)=O)[C@H](OC(C)=O)[C@@H](OC(C)=O)[C@H]1OC(C)=O	8.7
NS(=O)(=O)c1ccc(CNC(=S)N[C@@H]2O[C@H](CO)[C@@H](O[C@H]3O[C@H](CO)[C@@H](O)[C@H](O)[C@H]3O)[C@H](O)[C@H]2O)cc1	376

Could you now look at the following compound, please?
Exercise: Lookup: Ki / Carbonic anhydrase 2 (Homo sapiens) / CC(=O)OC[C@H]1O[C@@H](NC(=S)NCCc2ccc(S(N)(=O)=O)cc2)[C@H](OC(C)=O)[C@@H](OC(C)=O)[C@H]1OC(C)=O
Solution: 297
